Test system: MDA-MB-231 breast
methodSummary: NCI tumour cell line growth inhibition, 48 h
*1 amine or outer side, *2 acyl side, *3 side chain or, on linkers, in order; H or OH if unused. Where a SMILES comes first, the peptide text is derived from it. Bridges are numbered along the chain shown (N, C = ends). [ ]: non-standard residue; d: D form. Adda = CO[C@@H](Cc1ccccc1)[C@@H](C)/C=C(C)/C=C/[C@H](N[*:1])[C@H](C)C(=O)[*:2]; dAsp(3S-Me) = C[C@H](C(=O)[*:3])[C@@H](N[*:1])C(=O)[*:2]; d(γGlu) = O=C(O)[C@@H](CCC(=O)[*:2])N[*:1]; NMeDha = C=C(NC)C(=O)O
resultType: TGI

[[record]]
compound = "CCN1CCN(c2cc(C)nc(N(CCNc3ccnc4cc(Cl)ccc34)Cc3ccc4c(c3)OCO4)n2)CC1"
obsvalue = "3 µM"

[[record]]
compound = "O=c1cc(-c2ccccc2)oc2cc(Oc3nnnn3-c3ccccc3)ccc12"
obsvalue = "> 100 µM"

[[record]]
compound = "CN(C)CCCOc1ccc(OCCCN(C)C)c2c1C(=O)c1ccccc1C2=O"
obsvalue = "4.63 µM"

[[record]]
compound = "Cc1ccc2nc(-c3ccc(N)c(Br)c3)sc2c1"
obsvalue = "86.4 µM"

[[record]]
compound = "Cc1ccc([N+](=O)[O-])cc1S(=O)(=O)Nc1ccc(C2=NN(C(=O)c3ccccc3)C(c3ccccc3)C2)cc1 (stereo not drawn)"
obsvalue = "46.3 µM"

[[record]]
compound = "O=C(O)/C(=C/C(=O)c1ccc(Cl)cc1)NNc1ccc([N+](=O)[O-])cc1[N+](=O)[O-]"
obsvalue = "> 100 µM"

[[record]]
compound = "COc1ccc(C(=O)c2cc(OC)c3c(c2)OCO3)cc1O"
obsvalue = "> 100 µM"

[[record]]
compound = "c1ccc2c(c1)nc1n2sc2nc3ccccc3n21"
obsvalue = "> 100 µM"

[[record]]
compound = "COc1ccc2[nH]c(-c3ccccc3)c(/C=C(\\C#N)S(=O)(=O)c3ccccc3)c2c1"
obsvalue = "> 100 µM"

[[record]]
compound = "O=C(Nc1cccc(-n2cc(-c3ccncc3)c(-c3ccc(Cl)c(O)c3)n2)c1)Nc1ccc(Cl)c(C(F)(F)F)c1"
obsvalue = "1.48 µM"

[[record]]
compound = "Cc1cc2[nH]c(Cl)c(/C=C3\\C(=O)Nc4ccccc43)c2cc1O"
obsvalue = "15.9 µM"

[[record]]
compound = "O=C(O)CNC(=O)C(CS)Cc1ccccc1 (stereo not drawn)"
obsvalue = "> 25 µM"

[[record]]
compound = "CSC1=NN(c2ccccc2)C(=O)C1=C(SC)SC"
obsvalue = "53 µM"

[[record]]
compound = "CC(=O)O[C@H]1CC2C(C3CCC(C(C)CCC(=O)O)[C@]31C)[C@H](OC(C)=O)C[C@@H]1CC3(CC[C@]21C)OOC1(CC[C@]2(C)C4C[C@H](OC(C)=O)[C@]5(C)C(C(C)CCC(=O)O)CCC5C4[C@H](OC(C)=O)C[C@@H]2C1)OO3 (stereo partly drawn)"
obsvalue = "3.85 µM"

[[record]]
compound = "Nc1nc(/C=C\\c2ccc([N+](=O)[O-])cc2)nc(N2CCN(c3ccccc3)CC2)n1"
obsvalue = "58.1 µM"

[[record]]
compound = "N#CC1CNC(N)NC1N (stereo not drawn)"
obsvalue = "> 100 µM"

[[record]]
compound = "O=C(O)c1cc(C(=O)O)nc(C(=O)O)c1"
obsvalue = "> 100 µM"

[[record]]
compound = "COc1cc2c(cc1O)NC(=S)[C@@H]1CCCN1C2=O"
obsvalue = "> 100 µM"

[[record]]
compound = "CN1C2CCC1CN(CCOC(c1ccc(F)cc1)c1ccc(F)cc1)C2"
obsvalue = "58.5 µM"

[[record]]
compound = "CCOP(=O)(O)C(Nc1ccc(N=Nc2ccccc2)cc1)c1ccc(C(Nc2ccc(N=Nc3ccccc3)cc2)P(=O)(O)OCC)cc1 (stereo not drawn)"
obsvalue = "90.9 µM"

[[record]]
compound = "CC(C)(C)C(=O)N(C(=S)OCc1ccccn1)c1ccccc1"
obsvalue = "> 100 µM"

[[record]]
compound = "CCN(CC)C(=O)C[n+]1c2ccccc2n2cc(N)ccc21"
obsvalue = "> 100 µM"

[[record]]
compound = "Cc1cc(S(=O)(=O)n2ccnc2Oc2cccc(Cl)c2)c(SSc2cc(Cl)c(C)cc2S(=O)(=O)n2ccnc2Oc2cccc(Cl)c2)cc1Cl"
obsvalue = "> 51.3 µM"

[[record]]
compound = "O=S(=O)(Nc1ccccc1)c1ccc(-c2c3nc(c(-c4ccc(S(=O)(=O)Nc5ccccc5)cc4)c4ccc([nH]4)c(-c4ccc(S(=O)(=O)Nc5ccccc5)cc4)c4nc(c(-c5ccc(S(=O)(=O)Nc6ccccc6)cc5)c5ccc2[nH]5)C=C4)C=C3)cc1"
obsvalue = "> 31.6 µM"

[[record]]
compound = "O=c1c2cc([N+](=O)[O-])ccc2[nH]n1Cc1ccccn1"
obsvalue = "> 100 µM"

[[record]]
compound = "O=C(Oc1ccc(S(=O)(=O)F)cc1F)c1ccccc1Cl"
obsvalue = "58 µM"

[[record]]
compound = "C/C(=N\\O)c1ccc(Nc2nc3ccccc3c3occc23)cc1"
obsvalue = "8.22 µM"

[[record]]
compound = "O=c1c2ccc3cccc4c(=O)c5ccc6cccc1c6c5-c2c34"
obsvalue = "> 50 µM"

[[record]]
compound = "CC1CC(C)CC(NC2=NCCO2)C1 (stereo not drawn)"
obsvalue = "> 100 µM"

[[record]]
compound = "CCCS(=O)(=O)Nc1ccc(F)c(C(=O)c2c[nH]c3ncc(Cl)cc23)c1F"
obsvalue = "33.7 µM"

[[record]]
compound = "Clc1ccccc1/C=C\\C1(c2ccccc2)OCCO1"
obsvalue = "26.2 µM"

[[record]]
compound = "CC(C)(CN1CCCCC1)C(/C=C/c1ccc(Cl)c(Cl)c1)=N\\NC(=O)N/N=C(/C=C/c1ccc(Cl)c(Cl)c1)C(C)(C)CN1CCCCC1"
obsvalue = "3.71 µM"

[[record]]
compound = "COc1cc2ncn(-c3cc(O[C@H](C)c4ccccc4Cl)c(C(N)=O)s3)c2cc1OC"
obsvalue = "> 25 µM"

[[record]]
compound = "COc1cc(C=O)cc(/C=N/c2ccccn2)c1O"
obsvalue = "> 100 µM"

[[record]]
compound = "C[C@@H]1C[N+]2([O-])[C@H]3C4=CCC[C@@H]4CC[C@H]3[C@@]3(C)OC(=O)CC[C@]34CC[C@H]1[C@@H]42 (stereo partly drawn)"
obsvalue = "> 60 µM"

[[record]]
compound = "S=C(S)N1CCN(c2cccc(Cl)c2)CC1"
obsvalue = "> 100 µM"

[[record]]
compound = "C=C1C(=O)N[C@H](C)C(=O)N[C@@H](CC(C)C)C(=O)N[C@@H](C(=O)O)[C@H](C)C(=O)N[C@@H](CCCN=C(N)N)C(=O)N[C@@H](/C=C/C(C)=C/[C@H](C)[C@H](Cc2ccccc2)OC)[C@H](C)C(=O)N[C@@H](C(=O)O)CCC(=O)N1C (R[Adda][d(γGlu)][NMeDha][dA]L[dAsp(3S-Me)]-OH; lactam N-7)"
obsvalue = "> 5 µM"

[[record]]
compound = "O=C1/C(=C/c2cc3c(=O)c4ccccc4sc3s2)NC(=S)N1c1ccccc1"
obsvalue = "> 100 µM"


Data provenance: PubChem BioAssay (NCI)
